- target_of_assay: HDAC3/NCor2 (Homo sapiens (Human), UniProt O15379)
- Sequence (O15379 whole entry): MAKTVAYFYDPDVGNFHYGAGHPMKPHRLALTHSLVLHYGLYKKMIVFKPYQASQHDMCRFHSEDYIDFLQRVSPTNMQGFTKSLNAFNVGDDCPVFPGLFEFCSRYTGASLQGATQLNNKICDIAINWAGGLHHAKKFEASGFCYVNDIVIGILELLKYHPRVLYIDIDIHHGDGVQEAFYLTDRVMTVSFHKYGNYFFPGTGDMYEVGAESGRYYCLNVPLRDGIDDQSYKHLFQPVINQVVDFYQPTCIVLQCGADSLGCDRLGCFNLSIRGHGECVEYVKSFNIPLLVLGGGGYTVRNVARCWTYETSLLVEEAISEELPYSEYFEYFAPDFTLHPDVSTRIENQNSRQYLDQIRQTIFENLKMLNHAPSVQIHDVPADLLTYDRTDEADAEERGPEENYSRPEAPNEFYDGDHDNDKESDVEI
- Sequence (Q9Y618 395-489 partner): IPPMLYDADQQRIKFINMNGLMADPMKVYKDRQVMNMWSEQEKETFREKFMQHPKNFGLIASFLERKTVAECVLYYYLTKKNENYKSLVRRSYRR
- assay_procedure: HDAC3 inhibition, Fluor de Lys fluorescent enzyme assay
- test_parameters: 3 hours pre-incubation at room temp; 1.2 nM enzyme; 16 μM Fluor de Lys substrate; duplicate
pIC50: −log10 of the molar value.
Reported pIC50 values for the following molecules.

# annotated cases, reported pIC50 shown
>>> measured_result("Nc1ccc(-c2ccc(F)cc2)cc1NC(=O)c1ccc([S@]2(=O)=N[C@@H](c3ccccc3)CC2)cc1 (racemic)")
"< 5.70"
>>> measured_result("N=S(=O)(c1ccc(C(=O)Nc2cc(-c3ccc(F)cc3)ccc2N)cc1)c1cccnc1 (stereo not shown)")
"5.70 to 6.30"
>>> measured_result("CS(=N)(=O)c1ccc(C(=O)Nc2cc(-c3ccncc3)ccc2N)cc1 (stereo not shown)")
"< 5.70"
>>> measured_result("CS(=O)(=NC1CC1)c1ccc2oc(C(=O)Nc3cc(-c4ccc(F)cc4)ccc3N)cc2c1 (stereo not shown)")
"5.70 to 6.30"
>>> measured_result("Cc1ncccc1S(=N)(=O)c1ccc(C(=O)Nc2cc(-c3ccc(F)cc3)ccc2N)cc1 (stereo not shown)")
"5.70 to 6.30"

For the record COCCOCc1cncc(S(=N)(=O)c2ccc(C(=O)Nc3cc(-c4ccc(F)cc4)ccc3N)cc2)c1 (stereo not shown) , what value of pIC50 is listed for HDAC3/NCor2 (Homo sapiens (Human), UniProt O15379)?
< 5.70

For the record CS(=N)(=O)c1ncc(C(=O)Nc2cc(-c3ccc(F)cc3)ccc2N)s1 (stereo not shown) , what value of pIC50 is listed for HDAC3/NCor2 (Homo sapiens (Human), UniProt O15379)?
5.70 to 6.30

----------
- target_of_assay: HDAC3/NCor2 (Homo sapiens (Human))
- assay_procedure: HDAC3 inhibition, Fluor de Lys fluorescent enzyme assay
- test_parameters: 3 hours pre-incubation at room temp; 1.2 nM enzyme; 16 μM Fluor de Lys substrate; duplicate
pIC50: −log10 of the molar value.
Reported pIC50 values for the following compounds.

For the record N=[S@@](=O)(c1ccc(C(=O)Nc2cc(-c3ccc(F)cc3)ccc2N)cc1)C1CC1 (single isomer, unassigned) , what value of pIC50 is listed for HDAC3/NCor2 (Homo sapiens (Human))?
5.70 to 6.30

For the record N#Cc1ccc(S(=N)(=O)c2ccc(C(=O)Nc3cc(-c4ccc(F)cc4)ccc3N)cc2)cn1 (centres unmarked) , what value of pIC50 is listed for HDAC3/NCor2 (Homo sapiens (Human))?
5.70 to 6.30

For the record CS(=N)(=O)c1ccc2oc(C(=O)Nc3cc(-c4ccc(F)cc4)ccc3N)cc2n1 (centres unmarked) , what value of pIC50 is listed for HDAC3/NCor2 (Homo sapiens (Human))?
5.70 to 6.30

For the record CS(=N)(=O)c1ccc2sc(C(=O)Nc3cc(-c4cccs4)ccc3N)cc2c1 (centres unmarked) , what value of pIC50 is listed for HDAC3/NCor2 (Homo sapiens (Human))?
5.70 to 6.30

For the record CS(=N)(=O)c1ccc(C(=O)Nc2cc(-c3cncs3)ccc2N)cc1 (centres unmarked) , what value of pIC50 is listed for HDAC3/NCor2 (Homo sapiens (Human))?
5.70 to 6.30

For the record CS(=N)(=O)Cc1ccc2sc(C(=O)Nc3cc(-c4ccc(F)cc4)ccc3N)cc2c1 (centres unmarked) , what value of pIC50 is listed for HDAC3/NCor2 (Homo sapiens (Human))?
5.70 to 6.30

For the record CS(=N)(=O)Cc1ccc2oc(C(=O)Nc3cc(-c4ccc(F)cc4)ccc3N)cc2c1 (centres unmarked) , what value of pIC50 is listed for HDAC3/NCor2 (Homo sapiens (Human))?
5.70 to 6.30

For the record N=[S@@](=O)(c1ccc(C(=O)Nc2cc(-c3ccc(F)cc3)ccc2N)cc1)c1ccccn1 (single isomer, unassigned) , what value of pIC50 is listed for HDAC3/NCor2 (Homo sapiens (Human))?
5.70 to 6.30

For the record Cc1cccc(S(=N)(=O)c2ccc(C(=O)Nc3cc(-c4ccc(F)cc4)ccc3N)cc2)n1 (centres unmarked) , what value of pIC50 is listed for HDAC3/NCor2 (Homo sapiens (Human))?
5.70 to 6.30

For the record N=S(=O)(c1ccc(C(=O)Nc2cc(-c3ccc(F)cc3)ccc2N)cc1)C1CC1 (racemic) , what value of pIC50 is listed for HDAC3/NCor2 (Homo sapiens (Human))?
5.70 to 6.30

For the record N=S(=O)(c1ccc(F)cc1)c1ccc(C(=O)Nc2cc(-c3ccc(F)cc3)ccc2N)cc1 (centres unmarked) , what value of pIC50 is listed for HDAC3/NCor2 (Homo sapiens (Human))?
5.70 to 6.30

For the record N=S(=O)(c1ccc(C(=O)Nc2cc(-c3ccc(F)cc3)ccc2N)cc1)c1ccc(F)c(F)c1 (centres unmarked) , what value of pIC50 is listed for HDAC3/NCor2 (Homo sapiens (Human))?
5.70 to 6.30

For the record N=S(=O)(c1ccc(C(=O)Nc2cc(-c3ccc(F)cc3)ccc2N)cc1)c1ccc(Cl)cn1 (centres unmarked) , what value of pIC50 is listed for HDAC3/NCor2 (Homo sapiens (Human))?
5.70 to 6.30

For the record COCCS(=N)(=O)c1ccc(C(=O)Nc2cc(-c3cccs3)ccc2N)nc1 (centres unmarked) , what value of pIC50 is listed for HDAC3/NCor2 (Homo sapiens (Human))?
5.70 to 6.30

For the record Nc1ccc(-c2cccs2)cc1NC(=O)c1ccc(S2(=O)=NCCC2)cc1 (centres unmarked) , what value of pIC50 is listed for HDAC3/NCor2 (Homo sapiens (Human))?
5.70 to 6.30

For the record CS(=N)(=O)c1ccc(C(=O)Nc2cc(-c3cccnc3)ccc2N)cc1 (centres unmarked) , what value of pIC50 is listed for HDAC3/NCor2 (Homo sapiens (Human))?
5.70 to 6.30

For the record Cc1ccc(-c2ccc(N)c(NC(=O)c3ccc(S(C)(=N)=O)cc3)c2)s1 (centres unmarked) , what value of pIC50 is listed for HDAC3/NCor2 (Homo sapiens (Human))?
< 5.70

For the record N=S(=O)(c1ccc(C(=O)Nc2cc(-c3ccc(F)cc3)ccc2N)cc1)c1ccccn1 (centres unmarked) , what value of pIC50 is listed for HDAC3/NCor2 (Homo sapiens (Human))?
5.70 to 6.30

For the record CS(=N)(=O)C1(c2ccc(C(=O)Nc3cc(-c4cccs4)ccc3N)cc2)CC1 (centres unmarked) , what value of pIC50 is listed for HDAC3/NCor2 (Homo sapiens (Human))?
5.70 to 6.30

For the record Cc1ncc(-c2ccc(N)c(NC(=O)c3ccc(S(C)(=N)=O)cc3)c2)s1 (centres unmarked) , what value of pIC50 is listed for HDAC3/NCor2 (Homo sapiens (Human))?
< 5.70
